Tested on: chickens
assay.method.text: Serum cholesterol, apolipoproteins, triglycerides and glucose in chickens fed supplemented diets
Format: in vivo, chicken
assay.setup: control diet + 50 ppm, 4 weeks
readout.label: APO B in serum (mg/100 ml)
Answer with a number only, understood to be in mg/100 ml.

CC(C)=CCC/C(C)=C/CC/C(C)=C/CCC1(C)CCc2cc(O)cc(C)c2O1 (centres unmarked)    27.30
CC(C)=CCC/C(C)=C/CC/C(C)=C/CC[C@]1(C)CCc2c(C)c(O)c(C)c(C)c2O1    29.30
CC(C)=CCC/C(C)=C/CC/C(C)=C/CCC1CCc2cc(O)ccc2O1 (centres unmarked)    25.20
CC(C)=CCC/C(C)=C/CC/C(C)=C/CCC1(C)CCc2cc(O)ccc2O1 (centres unmarked)    25.40

Given the entry CC(C)=CCC/C(C)=C/CC/C(C)=C/CCC1(C)CCc2cc(O)c(C)c(C)c2O1 (centres unmarked) [γ-T3, γ-tocotrienol, reference compound] , what APO B in serum was observed with chickens?
29.53
